Molecular target: MEK (Homo sapiens)
Sequence (Q02750 whole entry): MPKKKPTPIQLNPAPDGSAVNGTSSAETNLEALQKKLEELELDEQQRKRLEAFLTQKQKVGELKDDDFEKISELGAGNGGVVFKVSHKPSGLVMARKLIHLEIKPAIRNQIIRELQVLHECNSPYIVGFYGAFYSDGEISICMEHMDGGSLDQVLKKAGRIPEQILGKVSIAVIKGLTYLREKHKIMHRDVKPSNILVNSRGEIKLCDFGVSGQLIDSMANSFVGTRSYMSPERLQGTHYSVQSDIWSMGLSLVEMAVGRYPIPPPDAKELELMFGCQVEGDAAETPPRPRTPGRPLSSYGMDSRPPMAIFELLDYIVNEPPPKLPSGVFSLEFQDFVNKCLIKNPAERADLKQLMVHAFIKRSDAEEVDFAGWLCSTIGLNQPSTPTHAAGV
Test: Cascade assay for inhibitors of the MAP kinase pathway (32P incorporation into MBP with GST-MEK and GST-MAPK)
Assay type: biochemical
Conditions: read-out: % Inhibition In Vitro
measured-property: inhibition at 10 µM (%)

Below, each entry is followed by its recorded inhibition at 10 µM result.
CONC(=O)c1ccccc1Nc1cccc(C)c1C ... 12
Cc1cccc(Nc2ccccc2C(=O)NO)c1C ... -4
Cc1ccc(Cl)c(Nc2ccccc2C(=O)NO)c1Cl ... -3
CONC(=O)c1ccccc1Nc1c(Cl)ccc(C)c1Cl ... 8
Cc1cccc(Nc2ccccc2C(=O)N(O)C(C)C)c1C ... 7

P = Cc1ccc(Cl)c(Nc2ccccc2C(=O)N(C)O)c1Cl
Q = Cc1ccc(Cl)c(Nc2ccccc2C(=O)N(O)C(C)C)c1Cl
Lookup: Just curious, which one has the larger inhibition at 10 µM reading, P or Q ? Kindly give the label for the entry you pick.
Found: P

###

Biological target: MEK (Homo sapiens)
Assay: Cascade assay for inhibitors of the MAP kinase pathway (32P incorporation into MBP with GST-MEK and GST-MAPK)
Format: biochemical
Conditions: read-out: % Inhibition In Vitro
measured-property: inhibition at 1 µM (%)

Cc1ccc(Cl)c(Nc2ccccc2C(=O)N(O)Cc2ccccc2)c1Cl [the 8th table: R6=CH2-Ph, R7=H] ... -4

A = Cc1cccc(Nc2ccccc2C(=O)NO)c1C [the 9th table: R6=H, R7=H]
B = Cc1ccc(Cl)c(Nc2ccccc2C(=O)NO)c1Cl [the 8th table: R6=H, R7=H]
C = CONC(=O)c1ccccc1Nc1cccc(C)c1C [the 9th table: R6=H, R7=CH3]
Lookup: Task field, ranking: reported inhibition at 1 µM, descending order. Return value: ordered labels per request.
Found: B, A, C

###

Biological target: MEK (Homo sapiens)
Assay: Cascade assay for inhibitors of the MAP kinase pathway (32P incorporation into MBP with GST-MEK and GST-MAPK)
Type: biochemical
Settings: read-out: % Inhibition In Vitro
measured-property: inhibition at 1 µM (%)

Some solved cases for reference:
Cc1ccc(Cl)c(Nc2ccccc2C(=O)N(O)C(C)C)c1Cl ... 17
Cc1cccc(Nc2ccccc2C(=O)N(O)C(C)C)c1C ... -11
Cc1ccc(Cl)c(Nc2ccccc2C(=O)N(C)O)c1Cl ... -5

P = Cc1cccc(Nc2ccccc2C(=O)N(C)O)c1C
Q = CONC(=O)c1ccccc1Nc1c(Cl)ccc(C)c1Cl
Lookup: Which item exceeds the other in inhibition at 1 µM, P or Q ? When you have decided, please share the label of that item.
Found: P
(P: 13%, Q: -8%)
